- system_under_test: T1, HLA-A*0201 (human)
- T1 construct: MHC monomer first loaded with a UV-sensitive peptide that is cleaved and exchanged for the test peptide; captured on streptavidin; also called peptide-receptive MHC molecules
- assay_comment: UV-ligand exchange, streptavidin/anti-b2m sandwich ELISA
measurement_name: Average exchange yield in % (%)

AMSSKFFLV (synthetic peptide from WNT5A) [WNT5A-001] = 37

1 = GVLENIFGV (synthetic peptide from PCNXL3) [PCNXL3-001]
2 = SLHFLILYV (synthetic peptide from ATP2A1, ATP2A2) [ATP-001]
Query: Between the entries labeled 1 and 2 , whose measured Average exchange yield in % is lower? // caller expects the label of the chosen entry
Result: 2
(2: 19%, 1: 87%)
